# Tested on: 252836-082-R-J2-PDC tumor spheroids, viability
# method-summary: Anticancer human tumor 252836-082-R-J2-PDC patient-derived head and neck squamous cell carcinoma cell line growth inhibition [PI3K]
# test-context: second compound 3.16 µM; first compound 0.316 µM; hits give low values; spheroids with HUVEC and MSC
attribute-measured: viability, T/C (%)
Give the value in % but do not write % after it.

Record excerpt, results attached:
molecule	experimental-system	viability, T/C, %
CNC(=O)c1ccc(N2C(=S)N(c3ccc(C#N)c(C(F)(F)F)c3)C(=O)C2(C)C)cc1F + CC(Nc1ncnc2nc[nH]c12)c1cc2cccc(Cl)c2c(=O)n1-c1ccccc1	252836-082-R-J2-PDC tumor spheroids, viability	75.7
CCN1CCN(Cc2ccc(Nc3ncc(F)c(-c4cc(F)c5nc(C)n(C(C)C)c5c4)n3)nc2)CC1 + Cc1nc(NC(=O)N2CCCC2C(N)=O)sc1-c1ccnc(C(C)(C)C(F)(F)F)c1	252836-082-R-J2-PDC tumor spheroids, viability	44.2
CC(C)NCC(C(=O)N1CCN(c2ncnc3c2C(C)CC3O)CC1)c1ccc(Cl)cc1 (stereo not drawn) + CC(Nc1ncnc2nc[nH]c12)c1cc2cccc(Cl)c2c(=O)n1-c1ccccc1	252836-082-R-J2-PDC tumor spheroids, viability	75
Cn1ncc(Cl)c1-c1cc(C(=O)NC(CN)Cc2cccc(F)c2)sc1Cl (stereo not drawn) + Cc1nc(NC(=O)N2CCCC2C(N)=O)sc1-c1ccnc(C(C)(C)C(F)(F)F)c1	252836-082-R-J2-PDC tumor spheroids, viability	43.6
CC(C)NCC(C(=O)N1CCN(c2ncnc3c2C(C)CC3O)CC1)c1ccc(Cl)cc1 (stereo not drawn) + Cc1nc(NC(=O)N2CCCC2C(N)=O)sc1-c1ccnc(C(C)(C)C(F)(F)F)c1	252836-082-R-J2-PDC tumor spheroids, viability	43

viability, T/C measured on CC(Cn1ccc(-c2ccc(C#N)c(Cl)c2)n1)NC(=O)c1cc(C(C)O)[nH]n1 (stereo not drawn) + CC(Nc1ncnc2nc[nH]c12)c1cc2cccc(Cl)c2c(=O)n1-c1ccccc1 = 79.2

viability, T/C measured on Cn1nccc1Nc1nccc(-c2ccn(C(CO)c3ccc(Cl)c(F)c3)c(=O)c2)n1 (stereo not drawn) + Cc1nc(NC(=O)N2CCCC2C(N)=O)sc1-c1ccnc(C(C)(C)C(F)(F)F)c1 = 56.9

###

Recorded viability, T/C by entry
# Test system: 252836-082-R-J2-PDC tumor spheroids, viability
# method-summary: Anticancer human tumor 252836-082-R-J2-PDC cell line growth inhibition [PI3K];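 further: spheroids exposed to agents for seven days before readout; percent of vehicle DMSO control viability so 100% = untreated growth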
# test-context: second compound 0.00316 µM; first compound 0.001 µM; hits give low values; spheroids with HUVEC and MSC
Give the value in % but do not write % after it.

compound	experimental-system	viability, T/C (%)
CC(C)n1nc(-c2ccc3oc(N)nc3c2)c2c(N)ncnc21 + COc1c(OCCCN2CCOCC2)ccc2c3n(c(=NC(=O)c4cnc(N)nc4)nc12)CCN3	252836-082-R-J2-PDC tumor spheroids, viability	81.9

viability, T/C measured on Cn1ncnc1[C@H]1c2n[nH]c(=O)c3cc(F)cc(c23)N[C@@H]1c1ccc(F)cc1 + COc1c(OCCCN2CCOCC2)ccc2c3n(c(=NC(=O)c4cnc(N)nc4)nc12)CCN3 = 88.2

viability, T/C measured on Cn1ncnc1[C@H]1c2n[nH]c(=O)c3cc(F)cc(c23)N[C@@H]1c1ccc(F)cc1 + CC(Nc1ccc2c(c1)OCCn1cc(N3C(=O)OCC3C(F)F)nc1-2)C(N)=O = 86.2

###

# Test system: 252836-082-R-J2-PDC tumor spheroids, viability
# method-summary: Anticancer human tumor 252836-082-R-J2-PDC cell line growth inhibition [PI3K];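 further: spheroids exposed to agents for seven days before readout; percent of vehicle DMSO control viability so 100% = untreated growth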
# test-context: second compound 0.0316 µM; first compound 0.1 µM; hits give low values; spheroids with HUVEC and MSC
attribute-measured: viability, T/C (%)
Give the value in % but do not write % after it.

molecule	viability, T/C / %
CC(C)NCC(C(=O)N1CCN(c2ncnc3c2C(C)CC3O)CC1)c1ccc(Cl)cc1 (stereo not given) + COc1c(OCCCN2CCOCC2)ccc2c3n(c(=NC(=O)c4cnc(N)nc4)nc12)CCN3	56.4
C#Cc1c(F)ccc2cc(O)cc(-c3ncc4c(N5CC6CCC(C5)N6)nc(OCC56CCCN5CC(F)C6)nc4c3F)c12 (stereo not given) + CC(Nc1ncnc2nc[nH]c12)c1cc2cccc(Cl)c2c(=O)n1-c1ccccc1	78.4
Cn1ncc(Cl)c1-c1cc(C(=O)NC(CN)Cc2cccc(F)c2)sc1Cl (stereo not given) + Cc1nc(NC(=O)N2CCCC2C(N)=O)sc1-c1ccnc(C(C)(C)C(F)(F)F)c1	65

viability, T/C measured on CC(C)NCC(C(=O)N1CCN(c2ncnc3c2C(C)CC3O)CC1)c1ccc(Cl)cc1 (stereo not given) + CC(Nc1ncnc2nc[nH]c12)c1cc2cccc(Cl)c2c(=O)n1-c1ccccc1 = 89.4

viability, T/C measured on CCCS(=O)(=O)Nc1ccc(F)c(C(=O)c2c[nH]c3ncc(-c4ccc(Cl)cc4)cc23)c1F + Cc1nc(NC(=O)N2CCCC2C(N)=O)sc1-c1ccnc(C(C)(C)C(F)(F)F)c1 = 95.6

###

# System: 252836-082-R-J2-PDC tumor spheroids, viability
# method-summary: Anticancer human tumor 252836-082-R-J2-PDC cell line growth inhibition [PI3K]; active means viability on the fitted dose curve at most 10% of control; inactive means the rest;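 further: spheroids exposed to agents for seven days before readout; percent of vehicle DMSO control viability so 100% = untreated growth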
# test-context: second compound 1 µM; first compound 3.16 µM; spheroids with HUVEC and MSC
Entry note: the call must match one of YES (active), NO (inactive)

Use these answered entries as a reference point.
molecule	experimental-system	group
CC1(C)CCC(Nc2ncc(C(F)(F)F)c(-c3c[nH]c4c(P(C)(C)=O)c(C#N)ccc34)n2)CN1 (stereo unspecified) + CC(Nc1ccc2c(c1)OCCn1cc(N3C(=O)OCC3C(F)F)nc1-2)C(N)=O	252836-082-R-J2-PDC tumor spheroids, viability	NO
CC(Cn1ccc(-c2ccc(C#N)c(Cl)c2)n1)NC(=O)c1cc(C(C)O)[nH]n1 (stereo unspecified) + COc1c(OCCCN2CCOCC2)ccc2c3n(c(=NC(=O)c4cnc(N)nc4)nc12)CCN3	252836-082-R-J2-PDC tumor spheroids, viability	YES
Cn1nccc1Nc1nccc(-c2ccn(C(CO)c3ccc(Cl)c(F)c3)c(=O)c2)n1 (stereo unspecified) + CC(Nc1ccc2c(c1)OCCn1cc(N3C(=O)OCC3C(F)F)nc1-2)C(N)=O	252836-082-R-J2-PDC tumor spheroids, viability	NO
CCCS(=O)(=O)Nc1ccc(F)c(C(=O)c2c[nH]c3ncc(-c4ccc(Cl)cc4)cc23)c1F + CC(Nc1ncnc2nc[nH]c12)c1cc2cccc(Cl)c2c(=O)n1-c1ccccc1	252836-082-R-J2-PDC tumor spheroids, viability	NO
C=CC(=O)N1CCN(c2nc(=O)n(-c3c(C)ccnc3C(C)C)c3nc(-c4c(O)cccc4F)c(F)cc23)C(C)C1 (stereo unspecified) + COc1c(OCCCN2CCOCC2)ccc2c3n(c(=NC(=O)c4cnc(N)nc4)nc12)CCN3	252836-082-R-J2-PDC tumor spheroids, viability	YES
CCCS(=O)(=O)Nc1ccc(F)c(C(=O)c2c[nH]c3ncc(-c4ccc(Cl)cc4)cc23)c1F + CC(Nc1ccc2c(c1)OCCn1cc(N3C(=O)OCC3C(F)F)nc1-2)C(N)=O	252836-082-R-J2-PDC tumor spheroids, viability	NO
C=CC(=O)N1CCN(c2nc(=O)n(-c3c(C)ccnc3C(C)C)c3nc(-c4c(O)cccc4F)c(F)cc23)C(C)C1 (stereo unspecified) + CC(Nc1ccc2c(c1)OCCn1cc(N3C(=O)OCC3C(F)F)nc1-2)C(N)=O	252836-082-R-J2-PDC tumor spheroids, viability	NO
CC1(C)CCC(Nc2ncc(C(F)(F)F)c(-c3c[nH]c4c(P(C)(C)=O)c(C#N)ccc34)n2)CN1 (stereo unspecified) + Cc1nc(NC(=O)N2CCCC2C(N)=O)sc1-c1ccnc(C(C)(C)C(F)(F)F)c1	252836-082-R-J2-PDC tumor spheroids, viability	NO

Please let me know the test result on file for CC1(C)CCC(Nc2ncc(C(F)(F)F)c(-c3c[nH]c4c(P(C)(C)=O)c(C#N)ccc34)n2)CN1 (stereo unspecified) + CC(Nc1ncnc2nc[nH]c12)c1cc2cccc(Cl)c2c(=O)n1-c1ccccc1 .
NO

Please let me know the test result on file for CC(Cn1ccc(-c2ccc(C#N)c(Cl)c2)n1)NC(=O)c1cc(C(C)O)[nH]n1 (stereo unspecified) + CC(Nc1ncnc2nc[nH]c12)c1cc2cccc(Cl)c2c(=O)n1-c1ccccc1 .
NO

Please let me know the test result on file for CNC(=O)c1ccc(N2C(=S)N(c3ccc(C#N)c(C(F)(F)F)c3)C(=O)C2(C)C)cc1F + Cc1nc(NC(=O)N2CCCC2C(N)=O)sc1-c1ccnc(C(C)(C)C(F)(F)F)c1 .
NO
